Sourced from patent US20100222396A1

# assaySystem: human orexin 2 receptor (hOx2R) (Homo sapiens, UniProt O43614)
# Construct: expressed in transfected cells
# protocolNotes: Calcium accumulation in cells (FLIPR), antagonism of orexin A, hOx2R
# Format: cell-based
# conditionDescription: cells expressing human orexin 2 receptor; IC50 vs orexin A converted by Cheng and Prusoff correction
# Protocol: Cells expressing human orexin 1 or human orexin 2 receptors, were seeded at 8,000 cells/well in 384 well black-walled clear bottom, poly-D-lysine coated plates. […] On the day of the experiment, the cells seeded in black plates were treated with assay buffer containing the Ca^2+ sensitive fluorescent dye Fluo-4-AM (2 μM), and probenecid (0.1 mM). […] Fluorescence measurements were then continued every 1 S for 120 S followed by every 4 S for 240 S. […]
molecules and their reported log10 of Kd
Reminder: these figures are log10 of reported Kd, in nM before transformation.

Summary for this molecule, CN(C(=O)c1ccc2[nH]ccc2c1)[C@H](CCNC(=O)c1nc2ccccc2n1C)Cc1ccccc1 [Example 81] : log10 of Kd is 1.11

# molecule CN(C(=O)c1ccccc1)[C@@H](Cc1ccccc1)[C@@H](O)CNC(=O)c1ccccn1 [Example 95] ; its log10 of Kd = 2.15

Reported log10 of Kd ( CN(C(=O)c1cccc2[nH]ccc12)[C@H](CCNC(=O)c1ccccn1)Cc1ccccc1 [Example 11] ) = 1.20

The reported value for CN(C(=O)c1cccc2ccn(C)c12)[C@H](CCNC(=O)c1ccccn1)Cc1ccccc1 [Example 36] in terms of log10 of Kd is 2.75

More entries:
log10 of Kd in this record for CN(C(=O)c1ccccc1)[C@](C)(CCNC(=O)c1ccccn1)Cc1ccccc1 [Example 111] : 2.75

Entry CN(C(=O)c1ccc2c(c1)OCO2)[C@@H](Cc1ccccc1)C(C)(C)CNC(=O)c1ccccn1 [Example 113] — recorded log10 of Kd = 2.70

Value of measured log10 of Kd for the entry CN(C(=O)c1ccccc1)[C@H](CCNC(=O)c1cccnc1)Cc1ccccc1 [Example 86] : 3.18

Value of measured log10 of Kd for the entry CN(C(=O)c1ccc2ccccc2c1)[C@@H](CCNC(=O)c1ccccn1)Cc1ccccc1 [Example 43] : 2.31

In plain terms, Cc1nc2sccn2c1C(=O)NCC[C@H](Cc1ccccc1)N(C)C(=O)c1ccc2c(c1)OCO2 [Example 82] has a documented log10 of Kd of 0.30

Field log10 of Kd (entry CN(C(=O)c1ccccc1)[C@H](CCNC(=O)c1cccc2cccnc12)Cc1ccccc1 [Example 49] ) reads 2.62

// recorded log10 of Kd for CCCN(C(=O)c1cccc2c1OCO2)[C@H](CCNC(=O)c1ccccn1)Cc1ccccc1 [Example 59] : 2.75

CN(C(=O)c1ccc2ccccc2c1)[C@H](CCNC(=O)c1ccccn1)Cc1ccccc1 [Example 21] has a reported log10 of Kd of 2.24

Reported log10 of Kd of CN(C(=O)c1cc(C(F)(F)F)cc(C(F)(F)F)c1)C(CCNC(=O)c1ccc2c(ccn2C)c1)Cc1ccccc1 (stereo not shown) [Example 60] : 2.56

So for CN(C(=O)c1cc(C(F)(F)F)cc(C(F)(F)F)c1)C(CCNC(=O)c1ccccn1)Cc1ccc(Cl)cc1 (stereo not shown) [Example 16] , the logged log10 of Kd turned out to be 1.64

Record CN(C(=O)c1ccc2c(c1)OCO2)[C@H](CCNC(=O)c1ccccn1)Cc1ccc(Cl)cc1 [Example 25] . Reported log10 of Kd: 1.56

Kindly note the recorded log10 of Kd for COc1cc(OC)cc(C(=O)N(C)[C@H](CCNC(=O)c2ccccn2)Cc2ccccc2)c1 [Example 41] , which is 2.29

###

# assaySystem: human orexin 1 receptor (hOx1R) (Homo sapiens)
# Construct: expressed in transfected cells
# protocolNotes: Calcium accumulation in cells (FLIPR), antagonism of orexin A, hOx1R
# Assay type: cell-based
# conditionDescription: cells expressing human orexin 1 receptor; IC50 vs orexin A converted by Cheng and Prusoff correction
# Experimental: Cells expressing human orexin 1 or human orexin 2 receptors, were seeded at 8,000 cells/well in 384 well black-walled clear bottom, poly-D-lysine coated plates. […] On the day of the experiment, the cells seeded in black plates were treated with assay buffer containing the Ca^2+ sensitive fluorescent dye Fluo-4-AM (2 μM), and probenecid (0.1 mM). […] Fluorescence measurements were then continued every 1 S for 120 S followed by every 4 S for 240 S. […]
pKd: −log10 of the molar value.
Decide using pKd: a value greater than or equal to 6 is Condition met, a smaller one is Condition not met.

Some entries whose results are on file:
**Q:** In plain terms: is recorded pKd at least 6 for Cc1cccc(C(=O)N(C)[C@H](CCNC(=O)c2ccccn2)Cc2ccccc2)c1 ?
**A:** Condition met

**Q:** Please indicate if the recorded pKd for Cc1cccc(C(=O)N(C)[C@H](CCNC(=O)c2cccn2C)Cc2ccccc2)c1 meets or exceeds 6.
**A:** Condition met

**Q:** Hello, I need to know if CN(C(=O)c1ccc2c(c1)OCO2)[C@@H](CCNC(=O)c1ccccn1)Cc1ccccc1 has measured pKd not below 6. Thanks!
**A:** Condition not met

Further cases:
**Q:** Decide: is the reported value of pKd for CCN(C(=O)c1ccc2c(c1)OCO2)[C@H](CCNC(=O)c1ccccn1)Cc1ccccc1 equal to or greater than 6?
**A:** Condition met

**Q:** Kindly determine if pKd recorded for CN(C(=O)c1cccc2c1OCO2)[C@H](CCNC(=O)c1ccccn1)Cc1ccccc1 is above or exactly 6.
**A:** Condition not met

###

# assaySystem: human orexin 1 receptor (hOx1R) (Homo sapiens, UniProt O43613)
# Construct: expressed in transfected cells
# Sequence (O43613 1-425): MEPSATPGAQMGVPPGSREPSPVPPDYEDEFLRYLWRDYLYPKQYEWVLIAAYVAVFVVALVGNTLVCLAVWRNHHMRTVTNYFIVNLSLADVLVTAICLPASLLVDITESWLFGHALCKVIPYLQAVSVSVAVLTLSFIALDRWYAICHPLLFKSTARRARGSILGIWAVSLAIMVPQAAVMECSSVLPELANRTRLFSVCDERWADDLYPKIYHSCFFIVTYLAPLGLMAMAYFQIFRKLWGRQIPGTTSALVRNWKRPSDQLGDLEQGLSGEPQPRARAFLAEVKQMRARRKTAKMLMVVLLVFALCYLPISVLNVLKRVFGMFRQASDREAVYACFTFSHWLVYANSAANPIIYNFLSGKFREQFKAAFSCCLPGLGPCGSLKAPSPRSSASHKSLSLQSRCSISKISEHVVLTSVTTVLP
# protocolNotes: Calcium accumulation in cells (FLIPR), antagonism of orexin A, hOx1R
# Assay type: cell-based
# conditionDescription: cells expressing human orexin 1 receptor; IC50 vs orexin A converted by Cheng and Prusoff correction
readoutLabel: Kd (µM)
Reply with just the number (in µM).

Worked cases, Kd given:
Record CN(C(=O)c1ccccc1)[C@@H](CCNC(=O)c1ccccn1)Cc1ccccc1 , field Kd: 3.58

Reported Kd ( CN(C(=O)c1ccc2c(c1)OC(F)(F)O2)[C@H](CCNC(=O)c1cccn1C)Cc1ccccc1 ) = 1.07

Recorded Kd (compound CN(C(=O)c1cccc2ccccc12)[C@H](CCNC(=O)c1nc2ccccc2n1C)Cc1ccccc1 ): 0.1

Kindly note the recorded Kd for COc1cccc(C(=O)N(C)[C@H](CCNC(=O)c2ccccn2)Cc2ccccc2)c1 , which is 0.466

Briefly, Kd measured for COc1ccc(C(=O)N(C)[C@H](CCNC(=O)c2nc3ccccc3n2C)Cc2ccccc2)cc1 : 1.25

Looking up CN(C(=O)c1ccc2c(c1)OCCO2)[C@H](CCNC(=O)c1ccccn1)Cc1ccccc1 , I found its Kd recorded as 1.94

Kd in this record for CN(C(=O)c1ccc2c(ccn2C)c1)[C@H](CCNC(=O)c1ccccn1)Cc1ccccc1 : 0.05

Moving on to another compound below.
Looking up CCN(C(=O)c1cccc2c1OCO2)[C@H](CCNC(=O)c1ccccn1)Cc1ccccc1 , I found its Kd recorded as 2.71

###

# assaySystem: human orexin 2 receptor (hOx2R) (Homo sapiens, UniProt O43614)
# Construct: expressed in transfected cells
# Sequence (O43614 1-444): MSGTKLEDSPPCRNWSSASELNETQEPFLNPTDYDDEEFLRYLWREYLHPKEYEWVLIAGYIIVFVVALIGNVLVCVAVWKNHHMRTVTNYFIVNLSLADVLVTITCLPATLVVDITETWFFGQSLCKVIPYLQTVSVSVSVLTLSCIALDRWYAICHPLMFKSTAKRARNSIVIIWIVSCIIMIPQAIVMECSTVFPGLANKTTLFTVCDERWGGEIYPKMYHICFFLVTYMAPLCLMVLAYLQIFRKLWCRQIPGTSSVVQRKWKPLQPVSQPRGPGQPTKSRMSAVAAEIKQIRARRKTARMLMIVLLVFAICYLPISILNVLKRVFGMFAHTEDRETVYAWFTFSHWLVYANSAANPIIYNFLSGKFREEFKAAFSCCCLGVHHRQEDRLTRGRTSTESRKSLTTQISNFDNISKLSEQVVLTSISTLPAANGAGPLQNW
# protocolNotes: Calcium accumulation in cells (FLIPR), antagonism of orexin A, hOx2R
# Format: cell-based
# conditionDescription: cells expressing human orexin 2 receptor; IC50 vs orexin A converted by Cheng and Prusoff correction
Known pKd of a selection of compounds
Answer as the number alone; pKd is minus log10 of concentration in mol/L.

Reading of pKd for CN(C(=O)c1ccccc1)[C@@H](CCNC(=O)c1ccccn1)Cc1ccccc1 with human orexin 2 receptor (hOx2R) (Homo sapiens, UniProt O43614): 5.63

Field pKd (system: human orexin 2 receptor (hOx2R) (Homo sapiens, UniProt O43614)) for entry CN(C(=O)c1ccc2c(c1)OCO2)[C@H](CCNC(=O)c1ccc2c(c1)OCO2)Cc1ccccc1 = 7.66

Entry CCCN(C(=O)c1ccc2c(c1)OCO2)[C@H](CCNC(=O)c1ccccn1)Cc1ccccc1 under human orexin 2 receptor (hOx2R) (Homo sapiens, UniProt O43614) had pKd of 7.13

The compound CN(C(=O)c1ccc2c(c1)CCN2)[C@H](CCNC(=O)c1ccccn1)Cc1ccccc1 , when measured on human orexin 2 receptor (hOx2R) (Homo sapiens, UniProt O43614), yielded pKd of 6.38
